measurement-setup: buffer; pH 7.4; 200.0 µM
experimental-readout: log10 of solubility kinetic (log10 of the value in µg/mL)
Recall that a logarithmic scale is used here: each number is log10 of solubility kinetic in µg/mL.

Known results for compounds:
chemical-smiles | meas-value
COc1cc(-c2noc(CCC(=O)NC3CCCCC3)n2)cc(OC)c1OC | 1.00
O=C1Cc2cc(NS(=O)(=O)c3ccc(Cl)cc3)cc3c2N1CCC3 | 1.63
N#Cc1ccc(OCc2noc(-c3ccsc3)n2)cc1 | -0.52
Fc1ccc2nc3c(nc2c1)CCCC3 | 1.12
Cc1cn(S(=O)(=O)c2ccc(Cl)cc2)c(C)n1 | 0.93

# ---- query compound ----
# get_value(readout='log10 of solubility kinetic', item= Oc1ccc(-c2nccc(-c3ccccn3)n2)cc1 ) 1.10

====

measurement-setup: buffer; pH 7.4; 200.0 µM
# solubility kinetic binned as low bin (below 7 µg/mL), mid bin (7 µg/mL to below 30 µg/mL), high bin (30 µg/mL or more)

molecule | label
COCC1CCCN(Cc2nc(Cc3ccccc3)no2)C1 (stereo not drawn) | high bin
NS(=O)(=O)c1cnccc1Nc1cccc(Br)c1 | high bin
O=C(COc1ccc(-n2ccnc2)cc1)Nc1cccc(Cl)c1 | mid bin
CC(C)N(Cc1ccccc1)C(=S)NC1CCCCC1 | mid bin
O=C(NCCCCNC(=O)c1ccccn1)c1ccccn1 | high bin
CCCn1c(=O)c(Br)cn(-c2ccccc2C)c1=O | high bin

Which category fits this record: CC(=O)c1c(C)[nH]c(C(=O)NCc2cccc(Cl)c2)c1C mid bin

Another molecule to look at: CC(C#N)Sc1ccc(S(=O)(=O)N2CCCC2)cn1 (stereo not drawn) high bin

Another molecule to look at: N#Cc1cc(-c2ccccc2)nc(N2CCNCC2)n1 high bin

====

measurement-setup: buffer; pH 7.4; 200.0 µM
experimental-readout: solubility kinetic

Known results for compounds:
compound | solubility kinetic
CCC(=O)N1CCN(c2ccc(NC(=O)c3ccc4ccccc4c3)cc2)CC1 | < 0.3 µg/mL
O=c1c2oc3ccccc3c2ncn1Cc1cccc(Cl)c1 | < 0.3 µg/mL
NC(N)=NC(N)=Nc1cccc2ccccc12 | > 34.1 µg/mL
Cc1cc(NC(=O)CSCc2ccccc2C)no1 | 18.3 µg/mL
O=C(NCC(=O)N1CCN(c2ncccn2)CC1)c1ccccc1OC(F)F | 52.2 µg/mL
O=C1CCCN1c1ccc(N2CCCC2=O)cc1 | > 36.6 µg/mL
O=[N+]([O-])c1ccc(N2CCN(Cc3cccc([N+](=O)[O-])c3)CC2)cc1 | 7.3 µg/mL
CCN(CC)C(=O)Oc1ccc(Cl)c2cccnc12 | 40.7 µg/mL

# get_value(readout='solubility kinetic', item= C/C(=N\NC(=O)c1ccccc1C)c1cccnc1 ) > 38 µg/mL

Another compound to look at: CCOc1ccc(NC(=O)Cc2ccc(S(=O)(=O)N3CCCCC3)cc2)cc1OCC 7 µg/mL

Another compound to look at: CCCCC(=O)OCc1nc2ccccc2s1 11.2 µg/mL

Another compound to look at: CC1CC1C(=O)OCC(=O)Nc1cccc(F)c1 (configuration not stated) > 37.7 µg/mL

====

measurement-setup: buffer; pH 7.4; 200.0 µM
Measured solubility kinetic accompanies every entry in the list below.

Known results for compounds:
compound | solubility kinetic
O=c1[nH]cnc2c1ncn2[C@@H]1C[C@@H](O)[C@H](CO)O1 | > 37.8 µg/mL
Cc1nnc(NC(=O)CN2CC(C)OC(C)C2)s1 (stereo unspecified) | > 40.6 µg/mL

# get_value(readout='solubility kinetic', item= O=C1CN(S(=O)(=O)c2ccccc2)CCN1 ) > 36 µg/mL

Another compound to look at: CCC(C)NC(=O)C1c2ccccc2C(=O)N1Cc1ccccc1 (stereo unspecified) 38.4 µg/mL

Another compound to look at: CCOC(=O)c1cc2c(ccc3nc(C)c(C)c32)[nH]c1C < 0.3 µg/mL

Another compound to look at: COc1cccc(C(=O)Nc2cccc3ccccc23)c1OC 14.5 µg/mL

====

Measured log10(solubility kinetic) accompanies every entry in the list below.
measurement-setup: buffer; pH 7.4; 200.0 µM
Recall that a logarithmic scale is used here: each number is log10 of solubility kinetic in µg/mL.

Known results for compounds:
compound | log10(solubility kinetic)
COc1ccc(C(=O)NC2CCCc3ccccc32)cc1 (stereo not given) | 0.81
COc1ccccc1CNC(=O)c1cc(=O)c2ccccc2o1 | 1.03
O=C(CCN1CCOCC1)Nc1ccc(F)cc1 | 1.48
Cc1nc2cc(NC(=O)Nc3cccc(F)c3)ccc2n1C | 0.52
Cc1ccccc1NC1(C#N)CCCCC1 | 0.56
CC(=O)Oc1ccc(N(C(C)=O)S(=O)(=O)c2ccc(C)cc2C)c2ccccc12 | 0.63
COc1ccc(CCNC(=O)COC(=O)/C=C/c2cc(OC)ccc2OC)cc1 | 0.72
CN1C(=O)N(C)C(=O)C2(Cc3ccccc3N3CCCC32)C1=O (stereo not given) | 1.66

# get_value(readout='log10(solubility kinetic)', item= COC(=O)c1ccc(N2CCc3ccccc32)c([N+](=O)[O-])c1 ) 0.00

Another compound to look at: CCCc1cc(=O)[nH]c(Nc2ccc(Cl)cc2)n1 0.64

Another compound to look at: Cc1ccc(NC(=O)CCN2CCN(C)CC2)cc1.Cl 1.57

Another compound to look at: COCCCNC(=O)COc1ccc2oc3c(c2c1)CCCC3 1.65

Another compound to look at: c1ccc2c(Cn3ccnc3)cccc2c1 1.48

Another compound to look at: c1ccc(CNc2nc(-c3cccnc3)nc3ccccc23)cc1 1.13

====

measurement-setup: buffer; pH 7.4; 200.0 µM
experimental-readout: solubility kinetic (µg/mL)
Numbers only here, please. The scale is µg/mL.

compound | units-of-measure | meas-value
CCOc1ccc(N/C=C/C(=O)c2ccc(OC)c(OC)c2)cc1 | µg/mL | 2.2

# get_value(readout='solubility kinetic', item= O=C1CSC(c2ccccc2)N1c1ccccc1F (stereo unspecified) ) 40.3

Another compound to look at: COc1ccc(CCNC(=O)c2cc(=O)[nH]c3ccccc23)cc1 1.9

Another compound to look at: O=C(c1ccc(COc2ccccc2Cl)o1)N1CCOCC1 34.4

Another compound to look at: O=C1CSC(c2cccc([N+](=O)[O-])c2)N1CCc1ccccc1 (stereo unspecified) 25.8

Another compound to look at: COc1cc(/C=C/C(=O)O)cc(S(=O)(=O)NCC2CCCO2)c1OC (stereo unspecified) 53.3

====

measurement-setup: buffer; pH 7.4; 200.0 µM
experimental-readout: log10(solubility kinetic) (log10 of the value in µg/mL)
Recall that a logarithmic scale is used here: each number is log10 of solubility kinetic in µg/mL.

molecule | log10(solubility kinetic)
CSCC(=O)NC1CCCN(C2Cc3ccccc3C2)C1 (centres undefined) | 1.64
COC(=O)c1sccc1NC(=S)Nc1ccc(F)cc1F | 1.62
CCc1nc2ccc(C(=O)Nc3ccc4c(c3)OCO4)cc2nc1CC | 0.20
Cc1cccc(/C(N)=N/OC(=O)CCCc2ccccc2)c1 | 0.26
Cc1[nH]c2ccccc2c1SCC(=O)Nc1nccs1 | 0.68
CCC(C)n1c(O)c(C=NCC2CCCO2)c(=O)[nH]c1=S (centres undefined) | 1.58

# get_value(readout='log10(solubility kinetic)', item= CC1=CC(C)(C)NC(=S)N1c1ccccc1C ) 1.13

Another molecule to look at: CC(=O)c1cccc(NC(=O)CCn2c(=S)oc3ccccc32)c1 -0.10

====

measurement-setup: buffer; pH 7.4; 200.0 µM
experimental-readout: solubility kinetic (µg/mL)
Numbers only here, please. The scale is µg/mL.

# get_value(readout='solubility kinetic', item= C#CCN1c2ccccc2Sc2cccnc21 ) 4.8

Another compound to look at: O=C(NC(=S)Nc1ccccc1)C1CCCCC1 0.6

Another compound to look at: CCCCSCCCNC(=O)Nc1ccc(C)c(C)c1 1.1

Another compound to look at: O=C(COC(=O)c1ccc(Cl)nc1)NCCc1ccc(Cl)cc1 21.4

Another compound to look at: O=C(NCc1ccc2c(c1)OCO2)c1ccc(Br)cc1 3.1

Another compound to look at: O=C(O)C1CCCN(S(=O)(=O)Cc2ccccc2)C1 (stereo not drawn) 37.7

Another compound to look at: CN1C2=NCCN2C(=O)c2cc(Cl)ccc21 30.9

====

measurement-setup: buffer; pH 7.4; 200.0 µM
Measured log10(solubility kinetic) accompanies every entry in the list below.
Recall that a logarithmic scale is used here: each number is log10 of solubility kinetic in µg/mL.

Known results for compounds:
compound | log10(solubility kinetic)
N#Cc1ccccc1OCC(=O)Nc1ccc2c(c1)OCCO2 | 1.29
COc1cccc(N2C(=O)CC(N3CCc4ccccc4C3)C2=O)c1 (stereo unspecified) | 1.70
CN(C)c1nc(OCc2ccccc2)c2ncc(=O)[nH]c2n1 | 0.08

# ---- query compound ----
# get_value(readout='log10(solubility kinetic)', item= CC(Oc1ccccc1)C(=O)NC1CCSc2ccccc21 (stereo unspecified) ) 1.41

These data points were gathered from PubChem BioAssay AID1996.
